tested on: Fibroblast; test: Multiplex assay against human fibroblast; format: toxicity, cell-based; conditions: 12 h, 1 µM, compound concentration 1 uM, replicate 1
Give measured Population Fragmented Nuclei (%) for each item. Keep answers brief.
One number for each entry, in %.

Compound | Value unit | Population Fragmented Nuclei (%)
Cc1ccc(C(=O)Nc2cccc(C(F)(F)F)c2)cc1Nc1nc(-c2cccnc2)nc2c1cnn2C | % | 34
CN1C2CCC1CC(OC(c1ccc(F)cc1)c1ccc(F)cc1)C2.Cl (stereo not given) | % | 26
CCN1CCN(Cc2ccc(Nc3ncc(F)c(-c4cc(F)c5nc(C)n(C(C)C)c5c4)n3)nc2)CC1.CS(=O)(=O)O | % | 39
O=C(Nc1ccc(-n2nc(-c3cccnc3)cc2C(F)(F)F)cn1)c1ccc(-c2ccccc2)c(F)c1 [BI 2049] | % | 29
COc1cc(N2CCN(C)CC2)ccc1Nc1ncc2c(n1)N(C)c1ccccc1C(=O)N2C | % | 25

Okay, here is my list. What is Population Fragmented Nuclei (%) for each of these?
1. O=C1NC(=O)C(c2cnc3ccccn23)=C1c1cn2c3c(cc(F)cc13)CN(C(=O)N1CCCCC1)CC2 [LY-2090314]
2. Cc1ccc2nc(NCCN)c3ncc(C)n3c2c1.O=C(O)C(F)(F)F.O=C(O)C(F)(F)F
3. CCOC(=O)c1c(C)[nH]c2ccc3c(c12)CN1CCc2cc(OC)ccc2C1O3 (stereo not given)
4. NC(=O)c1cccc(-c2cc(Nc3ccc(OC(F)(F)F)cc3)ncn2)c1
5. O=C(Nc1cccnn1)N1CCC(=Cc2cccc(Oc3ccc(C(F)(F)F)cn3)c2)CC1

# output
1. 16
2. 28
3. 21
4. 30
5. 24

* * *

system: Fibroblast; assay: Multiplex assay against human fibroblast; assay type: toxicity, cell-based; conditions: 48 h, 1 µM, compound concentration 1 uM, replicate 2
Please go through the items and note down their Population Pyknosed Nuclei (%).
Give bare numbers, in %.

Molecule | Population Pyknosed Nuclei (%)
O=C(Nc1ccc(Cl)cc1)Nc1cccc(-c2cccc(N3CCCC3)n2)c1 | 1

Below are 2 molecules. Give each one its Population Pyknosed Nuclei (%).
1. O=C(Cc1ccc(-c2ccc(OCCN3CCOCC3)cc2)cn1)NCc1ccccc1
2. CN1CCC(=C2c3ccccc3CC(=O)c3sccc32)CC1.O=C(O)/C=C/C(=O)O [KETOTIFEN FUMARATE]

# output
4
6

Below are 5 molecules. Give each one its Population Pyknosed Nuclei (%).
1. CCOC(=O)c1c(C)[nH]c2ccc3c(c12)CN1CCc2cc(OC)ccc2C1O3 (stereo unspecified)
2. CN1C2CCC1CC(OC(c1ccc(F)cc1)c1ccc(F)cc1)C2.Cl (stereo unspecified)
3. Cl.O=c1c2cccn2c2ccccc2n1CCCN1CCC(c2ccc(Cl)cc2)CC1
4. O=C(Nc1ccc(-c2ccnc(Nc3ccc(N4CCOCC4)cc3)n2)cc1)[C@@H]1CCCN1
5. CNc1cc(Oc2cc(C(=O)Nc3cc(N4CCN(C)CC4)cc(C(F)(F)F)c3)ccc2C)ncn1

# output
[0, 0, 2, 4, 4]

State the recorded Population Pyknosed Nuclei (%) for every item in the following list.
1. O=C(Nc1ccc(-n2nc(-c3cccnc3)cc2C(F)(F)F)cn1)c1ccc(-c2ccccc2)c(F)c1
2. CCn1c(=O)c(-c2ccc(-c3cncs3)cc2Cl)cc2cnc(Nc3ccc(N4CCN(C)CC4)cc3)nc21
3. CCOc1cc2ncc(C#N)c(Nc3ccc(OCc4ccccn4)c(Cl)c3)c2cc1NC(=O)/C=C/CN(C)C

# output
1. 1
2. 0
3. 2

* * *

tested on: Fibroblast; assay: Incucyte cell viability with human fibroblast; assay type: toxicity, cell-based; settings: 6 h, 10 µM, compound concentration 10 uM, replicate number 1, timepoint 6 hours; also: filed as whole numbers so only -1 and 0 and 1 occur
Record form. Attribute: Growth Rate. Fill in for each entry.
Answers are plain numbers.

// worked examples, Growth Rate included
Smiles | Experimental target | Growth Rate
Cl.O=c1c2cccn2c2ccccc2n1CCCN1CCC(c2ccc(Cl)cc2)CC1 | Fibroblast | 0
O=C(NS(=O)(=O)c1ccc(NCC2CCOCC2)c([N+](=O)[O-])c1)c1ccc(N2CCN(Cc3ccc(C(F)(F)F)cc3-c3ccc(Cl)cc3)CC2)cc1Oc1cnc2[nH]ccc2c1 | Fibroblast | 1
Cl.Oc1ccc2c3c1O[C@H]1c4[nH]c5c(c4C[C@@]4(O)[C@@H](C2)N(CC2CC2)CC[C@]314)C[C@@]1(O)[C@H]2Cc3ccc(O)c4c3[C@@]1(CCN2CC1CC1)[C@H]5O4 | Fibroblast | 0
CCCc1c(OCCCOc2ccc(OCC(=O)O)cc2)ccc(C(C)=O)c1O | Fibroblast | 1
S=C(NCCCc1c[nH]cn1)NCCCN(Cc1ccc(Cl)c(Cl)c1)c1ccc(Br)cn1 | Fibroblast | 0

Provide Growth Rate values for the following items, in order.
1. CCn1cc(-c2ccnc3[nH]c(-c4cccc(CN(C)C)c4)cc23)c(-c2ccc(NC(=O)N(C)C)cc2)n1
2. Cc1cn(-c2cc(NC(=O)c3ccc(C)c(Nc4nccc(-c5cccnc5)n4)c3)cc(C(F)(F)F)c2)cn1

# output
1: 1; 2: 0

* * *

I'd be grateful if you could share measured Growth Rate for these entries.
tested on: U2OS; assay: Incucyte cell viability with U2OS; type: toxicity, cell-based; conditions: human, 12 h, 10 µM, compound concentration 10 uM, replicate number 2, timepoint 12 hours; also: filed as whole numbers so only -1 and 0 and 1 occur

Worked examples follow.
Smiles | Measured quantity | Value reported
FC(F)(F)c1cccc(-c2noc(-c3cc(-c4ccccc4)c(C(F)(F)F)s3)n2)c1 | Growth Rate | 0
N#Cc1c[nH]c2c(C(=O)N3CCN(CCc4ccc(F)cc4)CC3)cccc12 | Growth Rate | 0
CC[C@H](CO)Nc1nc(NCc2ccccc2)c2ncn(C(C)C)c2n1 | Growth Rate | 1
CCOc1cc(C(=O)N2CCC(N3CCN(C)CC3)CC2)ccc1Nc1ncc2c(n1)N(C1CCCC1)c1ccccc1C(=O)N2C | Growth Rate | 1
COc1cc(N2CCC(N3CCN(C)CC3)CC2)ccc1Nc1ncc(Cl)c(Nc2ccccc2P(C)(C)=O)n1 | Growth Rate | 1

Dear colleague, could you please provide Growth Rate for the compounds listed below?
1. CCCn1c(=O)c2[nH]c(-c3cnn(Cc4cccc(C(F)(F)F)c4)c3)nc2n(CC)c1=O
2. O=C(Nc1cccnn1)N1CCC(=Cc2cccc(Oc3ccc(C(F)(F)F)cn3)c2)CC1
3. CC1(C)C(=O)C(C)(C)c2cc(C(=O)Nc3ccc(C(=O)O)cc3)ccc21

# output
1. 1
2. 1
3. 1

* * *

Please go through the items and note down their Growth Rate.
test system: HEK-293T; assay: Incucyte cell viability with HEK293T; assay type: toxicity, cell-based; conditions: human, 0 h, 10 µM, compound concentration 10 uM, replicate number 2, timepoint 0 hours; also: filed as whole numbers so only -1 and 0 and 1 occur

Study these solved cases before continuing.
Compound | Experimental target | Growth Rate
CN1CCC(=C2c3ccccc3CC(=O)c3sccc32)CC1.O=C(O)/C=C/C(=O)O [KETOTIFEN FUMARATE] | HEK-293T | 1
CCC(=N\O)/C(C)=C/c1ccc(F)c(C)c1 | HEK-293T | 0

Give Growth Rate for all compounds that follow.
1. Cc1c(C(=O)O)cc(-c2ccc(C3CCNCC3)cc2)c2ccc(-c3ccc(C(F)(F)F)cc3)cc12.Cl
2. CN1CCN(c2cnc3c(C4CCN(C(=O)c5ccc(OC(F)(F)F)cc5N)CC4)ncnc3c2)CC1

# output
1. 0
2. 1

* * *

tested on: Fibroblast; test: Incucyte cell viability with human fibroblast; type: toxicity, cell-based; details: 18 h, 10 µM, compound concentration 10 uM, replicate number 2, timepoint 18 hours; also: filed as whole numbers so only -1 and 0 and 1 occur
Measured quantity: Growth Rate

Smiles | Experimental target | Growth Rate
C[C@@H]1CN(c2cc(-c3n[nH]c4ccc(OC5(C)CC5)cc34)ncn2)C[C@H](C)O1 | Fibroblast | 0
CC(=O)N1CCC(c2ccc(C(=O)NC(=N)N)cc2C(F)(F)F)CC1 | Fibroblast | 0

For each of the items listed, what is its Growth Rate?
1. CN1CCN(c2cnc3c(C4CCN(C(=O)c5ccc(OC(F)(F)F)cc5N)CC4)ncnc3c2)CC1
2. CCOc1cc(C(=O)N2CCC(N3CCN(C)CC3)CC2)ccc1Nc1ncc2c(n1)N(C1CCCC1)c1ccccc1C(=O)N2C

# output
1: 1; 2: 1

* * *

test system: U2OS; test: Multiplex assay against U2OS; type: toxicity, cell-based; details: human, 24 h, 1 µM, compound concentration 1 uM, replicate 1
Measured quantity: Population Hoechst High Intensity Objects (%)
Remember to put the unit after the number in your answer.

Take a look at these entries with their results.
Compound | Value reported
CCn1cc(-c2ccnc3[nH]c(-c4cccc(CN(C)C)c4)cc23)c(-c2ccc(NC(=O)N(C)C)cc2)n1 [GSK-1070916] | 2%
C[C@H]1Oc2cc(cnc2N)-c2c(nn(C)c2C#N)CN(C)C(=O)c2ccc(F)cc21 [LORLATINIB] | 2%
CCn1c(=O)c(-c2ccc(-c3cncs3)cc2Cl)cc2cnc(Nc3ccc(N4CCN(C)CC4)cc3)nc21 | 4%
CN1CCC(=C2c3ccccc3CC(=O)c3sccc32)CC1.O=C(O)/C=C/C(=O)O [KETOTIFEN FUMARATE] | 5%
Cn1nc(C(F)(F)F)cc1-c1cnc(N2CCc3cc(S(=O)(=O)Nc4c(F)cc(Cl)cc4F)cc(N4CCCC4=O)c32)nc1 [TP-020] | 2%
CCNc1cc(N[C@H]2CC[C@H](O)CC2)nc(Nc2ccc3c(ccn3Cc3ccccc3)c2)n1 | 2%
Cc1ccc(C(=O)Nc2cccc(C(F)(F)F)c2)cc1Nc1nc(-c2cccnc2)nc2c1cnn2C | 9%

# input // lookup Population Hoechst High Intensity Objects (%) for `CNc1cc(Oc2cc(C(=O)Nc3cc(N4CCN(C)CC4)cc(C(F)(F)F)c3)ccc2C)ncn1`
# output 9%
